Parameter: activity change, negative = inhibition. Scope: all listed entries.
# Experiment: AP1 Signaling Pathway (AID 357);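 further: ME-180 reporter cells stimulated with EGF at its EC50 level; on the % scale 0 is the no-effect control and ±100 the full control effect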
# Condition details: ME-180 AP-1-bla reporter, EGF-induced, beta-lactamase ratio, 5 h; at 7.69 µM (top of the series) unless noted
Inconclusive results are not listed.
Give a bare numeral; the unit % is implied.

Examples with their reported activity change, negative = inhibition follow.
CC(C)NCC[C@@H](O)c1cc2ccccc2o1	-15
NCc1nnn(Cc2ccccc2)c1N	2.56
CC(C)(C)n1nc(C2CC2)cc1NC(=O)Nc1ccc(Cl)cc1	-5.76
CC(=O)[C@H]([C@@H](c1ccccc1)N1CCOCC1)N1CCOCC1	4
O=C(O)Cc1cccc2c(=O)cc(-c3ccccc3)oc12	-1.49

Field: next molecule
Please list activity change, negative = inhibition recorded for the molecule `COc1c(O)ccc2c1CN1CCc3cc4c(cc3[C@@H]1C2)OCO4`
-4.62

* * *

# Experiment: AP1 Signaling Pathway (AID 357);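 further: ME-180 reporter cells stimulated with EGF at its EC50 level; on the % scale 0 is the no-effect control and ±100 the full control effect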
# Condition details: ME-180 AP-1-bla reporter, EGF-induced, beta-lactamase ratio, 5 h; at 7.69 µM (top of the series) unless noted
Records with an inconclusive call do not appear. Calls of active or inactive are those of the source. The call rests on the fitted dose curve; in most records, active means well fitted curve in either direction with a large enough effect (not every such curve was filed as active); inconclusive means small, poorly fitted or top-dose-only effect, or another doubt; inactive means flat fitted curve, though single readings scatter.
List of activity change, negative = inhibition values.

Nc1nc(-c2ccccc2)c(-c2ccccc2)c(-c2nc(N)nc(-c3ccccc3)c2-c2ccccc2)n1	-1.08% (inactive)
O=[N+]([O-])c1ccc2c(N=Nc3ccc4ccccc4c3O)c(O)cc(S(=O)(=O)O)c2c1	-18.5% (inactive)
N=C(c1ccc2ccccc2c1)c1ccccc1Cc1ccccc1	0.881% (inactive)
NCCNc1ncnc2ccc(Cl)cc12	5.69% (inactive)
COc1ncc2nc(C)c(=O)n(C)c2n1	-15% (inactive)

Dear colleague, please send me the reported activity change, negative = inhibition for `Oc1ccc2ccccc2c1Cc1c(O)ccc2ccccc12` when you can.
0.512% (inactive)

Consider the compound `O=C(O)c1cccc(CN2CCCCC2)c1` . State its measured activity change, negative = inhibition.
9.32% (inactive)

Supply activity change, negative = inhibition value. Item: `CC1=NNC(=S)NCCCN2CCN(CCCNC(=S)NN=C(C)C=NNC(=S)NCCCN3CCN(CCCNC(=S)NN=C1)CC3)CC2`
4.7% (inactive)

Given the compound `NC1=C(O)C(=O)[C@H](c2c[nH]c3ccc(OCc4ccccc4)cc23)O1` , write its reported activity change, negative = inhibition.
-18.8% (inactive)

Answer with the recorded activity change, negative = inhibition for the compound listed here: `CC(C)=C[C@H]1[C@@H](COC(=O)c2cc3c(cc2Cl)OCO3)C1(C)C`
9.62% (inactive)

Note activity change, negative = inhibition for the compound shown: `CC(C)N1CCN(c2ccncc2S(=O)(=O)N2CCCCC2)CC1`
0.726% (inactive)

* * *

# Experiment: Stat Signaling Pathway (AID 446);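 further: ME-180 cervical cancer cells given 40 pM IL-6 alongside compound; SIE-controlled beta-lactamase reporter measured as 460/530 nm FRET emission ratio; on the % scale 0 is the no-effect control and ±100 the full control effect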
# Condition details: ME-180 (cervical carcinoma) SIE beta-lactamase reporter, IL-6 stimulated, 5 h; at 7.69 µM (top of the series) unless noted
Records with an inconclusive call do not appear. Calls of active or inactive are those of the source. Calls come from the whole dose curve; as a rule, active = well fitted curve in either direction with a large enough effect (not every such curve was filed as active); inconclusive = small, poorly fitted or top-dose-only effect, or another doubt; inactive = flat fitted curve, though single readings scatter.
Reported property: activity, negative = inhibition

COCCn1c(=O)c(CCc2ccccc2)nc2cnc(Oc3cccc(Cl)c3)nc21	-17.3% (inactive)
Nc1nc2nc3c(nc2c(=O)[nH]1)CN(c1ccc(C(=O)O)cc1)C3=O	-8.98% (inactive)

Return value of activity, negative = inhibition for input `C[C@H](O)[C@H](O)[C@@H]1CNc2nc(N)[nH]c(=O)c2N1` , no commentary.
18.8% [at 38 µM] (inactive)

Consider the compound `Cc1cc2sc(C)[n+](CCCOS(=O)(=O)O)c2cc1C` . State its measured activity, negative = inhibition.
1% (inactive)

In one line, give reported activity, negative = inhibition of the entry `CC(=O)[C@H]1CC[C@@H]2[C@]1(C)CC=C1[C@]23C=C[C@]2(C[C@H](O)CC[C@@]12C)[C@H](C(=O)O)[C@@H]3C(=O)O` .
3.06% (inactive)

Quick one: give measured activity, negative = inhibition for `CC(C)C12CC[C@@]3(CC[C@H]4[C@@](C)(CCC[C@]4(C)C(=O)O)[C@@H]3C1)[C@@H](CN)C2`
1.18% (inactive)

* * *

# Tested target: Lysosomal acid glucosylceramidase (Homo sapiens) (UniProt P04062)
# Sequence (P04062 whole entry, looked up): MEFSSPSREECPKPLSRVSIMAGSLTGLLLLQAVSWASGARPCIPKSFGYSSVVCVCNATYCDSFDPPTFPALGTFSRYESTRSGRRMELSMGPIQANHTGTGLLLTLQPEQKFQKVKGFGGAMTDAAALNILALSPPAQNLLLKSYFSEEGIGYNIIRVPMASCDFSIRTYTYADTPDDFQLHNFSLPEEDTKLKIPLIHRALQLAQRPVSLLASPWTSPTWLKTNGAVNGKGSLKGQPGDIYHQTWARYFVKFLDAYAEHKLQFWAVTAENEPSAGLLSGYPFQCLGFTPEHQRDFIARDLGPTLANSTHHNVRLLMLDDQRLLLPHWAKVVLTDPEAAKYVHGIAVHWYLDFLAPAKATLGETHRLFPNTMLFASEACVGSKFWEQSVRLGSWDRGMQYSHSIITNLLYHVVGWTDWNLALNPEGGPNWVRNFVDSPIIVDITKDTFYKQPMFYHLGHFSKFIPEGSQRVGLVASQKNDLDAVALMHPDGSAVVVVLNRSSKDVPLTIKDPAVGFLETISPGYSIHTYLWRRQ
# Experiment: Glucocerebrosidase-p2 (AID 348); further: potency means the concentration at half of the fitted maximal effect
# Condition details: purified GBA, blue fluorogenic substrate, 40 min
Activity calls are given as the source filed them. Cut-off read from the data, not from the text of the source: active = potency below about 10 µM; inactive = the rest.
// classify into active, inactive

CN(C)CCCN1c2ccc(O)cc2Sc2ccc(Cl)cc21	active
NCCSc1nc2ccccc2s1	inactive
CN(CCC(=O)O)S(=O)(=O)c1ccccc1	inactive
C[C@H](CC(=O)O)C(C(=O)O)C(=O)O	inactive
CN(C)CCCn1c2ccccc2c2cnccc21	inactive

Could you please tell me the result logged for `Nc1nc(Cl)cc(NCCO)n1` in this assay?
inactive

What classification did `Nc1nc2c(c(=O)[nH]1)CN(c1ccc(S(N)(=O)=O)cc1)CN2` end up with in this test?
inactive

I would be grateful if you could indicate the recorded call for `Cc1[nH]c2ccccc2c1-c1cc(-c2cc(-c3c(C)[nH]c4ccccc34)on2)no1` .
inactive

* * *

# Tested target: Cytochrome P450 1A2 (Homo sapiens) (UniProt P05177)
# Sequence (P05177 whole entry, looked up): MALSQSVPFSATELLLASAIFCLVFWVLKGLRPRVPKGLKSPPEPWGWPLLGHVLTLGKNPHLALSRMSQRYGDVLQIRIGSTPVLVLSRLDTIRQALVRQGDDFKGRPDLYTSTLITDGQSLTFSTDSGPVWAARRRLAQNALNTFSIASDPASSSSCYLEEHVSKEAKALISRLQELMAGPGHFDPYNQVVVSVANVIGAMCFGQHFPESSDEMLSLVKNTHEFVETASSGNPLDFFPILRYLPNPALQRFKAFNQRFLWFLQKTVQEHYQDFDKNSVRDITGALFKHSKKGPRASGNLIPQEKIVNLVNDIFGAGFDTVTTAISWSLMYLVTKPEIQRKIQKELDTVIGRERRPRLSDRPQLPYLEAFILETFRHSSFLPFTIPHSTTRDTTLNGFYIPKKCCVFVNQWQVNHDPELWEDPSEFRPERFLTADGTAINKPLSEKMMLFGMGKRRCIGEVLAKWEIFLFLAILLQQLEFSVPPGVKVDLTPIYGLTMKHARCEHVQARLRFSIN
# Experiment: p450-cyp1a2 (AID 410)
# Condition details: recombinant CYP1A2, luciferin-ME demethylation, luminescence; series mostly up to 11.4 µM
Records with an inconclusive call do not appear. Activity calls are given as the source filed them. Calls follow the shape of the full dose curve.
A correct response names exactly one class from class 1 for active, class 0 for inactive

Please let me know the test result on file for `CCOC(=O)CCCN` .
class 1

Outcome logged for `Cc1cc(OCc2nc(N)nc(N)c2-c2ccc(Cl)c(Cl)c2)ccc1[N+](=O)[O-]` in this assay:
class 1

Query: recorded result category for `Nc1nc(=O)c2[nH]cnc2n1O` in this test
class 0

* * *

# Tested target: Nuclear receptor ROR-gamma (Homo sapiens) (UniProt P51449)
# Sequence (P51449 whole entry, looked up): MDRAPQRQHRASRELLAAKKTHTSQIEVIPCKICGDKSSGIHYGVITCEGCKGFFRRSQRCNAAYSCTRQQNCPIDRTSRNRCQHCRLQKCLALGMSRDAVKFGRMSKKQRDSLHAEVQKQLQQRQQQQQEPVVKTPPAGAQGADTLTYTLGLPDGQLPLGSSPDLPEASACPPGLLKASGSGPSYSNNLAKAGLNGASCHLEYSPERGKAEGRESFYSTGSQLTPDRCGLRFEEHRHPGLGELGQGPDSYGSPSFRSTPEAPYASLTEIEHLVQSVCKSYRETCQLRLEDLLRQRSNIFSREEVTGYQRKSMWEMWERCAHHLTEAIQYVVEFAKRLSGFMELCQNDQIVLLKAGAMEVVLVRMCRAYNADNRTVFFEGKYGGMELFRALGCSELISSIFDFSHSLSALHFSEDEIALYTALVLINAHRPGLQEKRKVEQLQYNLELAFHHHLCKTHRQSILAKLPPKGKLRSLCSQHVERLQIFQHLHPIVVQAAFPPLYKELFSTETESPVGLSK
# Experiment: qHTS assay for small molecule antagonists of the retinoid-related orphan receptor gamma (ROR-gamma) signaling pathway (AID 651802);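 further: CHO cells with doxycycline-induced ROR-gamma expression; luciferase reporter luminescence driven by ROR response element; on the % scale 0 is the no-effect control and ±100 the full control effect; nearly all actives have a fitted effect of over 60% in size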
# Condition details: ROR-gamma antagonist cell reporter assay; series mostly up to 92.2 µM
Records with an inconclusive call do not appear. Calls of active or inactive are those of the source. Calls follow the shape of the dose curve; as a rule, active = well fitted inhibition curve with a large enough effect; inconclusive = small, poorly fitted or top-dose-only effect; inactive = no such curve, though single readings can be large or run the other way.
Reported property: Potency

See these solved cases before continuing.
CC/C=C/C/C=C/C/C=C/CCCCCCCC(=O)OCC	inactive
O=C(Cl)c1ccc([N+](=O)[O-])cc1	inactive
COc1ccc(C(=O)Nc2ccccc2)cc1[N+](=O)[O-]	inactive
Brc1cc(Oc2cc(Br)c(Br)c(Br)c2Br)c(Br)c(Br)c1Br	inactive
Cc1cc(-c2ccc(N=Nc3cc(S(=O)(=O)O)c4ccccc4c3N)c(C)c2)ccc1N=Nc1cc(S(=O)(=O)O)c2ccccc2c1N	inactive

Look up and report measured Potency for this entry: CCCCC(CC)COP(=O)(OCC(CC)CCCC)OCC(CC)CCCC (stereo not given)
inactive

* * *

# Tested target: Glucocorticoid receptor (Homo sapiens) (UniProt P04150)
# Sequence (P04150 whole entry, looked up): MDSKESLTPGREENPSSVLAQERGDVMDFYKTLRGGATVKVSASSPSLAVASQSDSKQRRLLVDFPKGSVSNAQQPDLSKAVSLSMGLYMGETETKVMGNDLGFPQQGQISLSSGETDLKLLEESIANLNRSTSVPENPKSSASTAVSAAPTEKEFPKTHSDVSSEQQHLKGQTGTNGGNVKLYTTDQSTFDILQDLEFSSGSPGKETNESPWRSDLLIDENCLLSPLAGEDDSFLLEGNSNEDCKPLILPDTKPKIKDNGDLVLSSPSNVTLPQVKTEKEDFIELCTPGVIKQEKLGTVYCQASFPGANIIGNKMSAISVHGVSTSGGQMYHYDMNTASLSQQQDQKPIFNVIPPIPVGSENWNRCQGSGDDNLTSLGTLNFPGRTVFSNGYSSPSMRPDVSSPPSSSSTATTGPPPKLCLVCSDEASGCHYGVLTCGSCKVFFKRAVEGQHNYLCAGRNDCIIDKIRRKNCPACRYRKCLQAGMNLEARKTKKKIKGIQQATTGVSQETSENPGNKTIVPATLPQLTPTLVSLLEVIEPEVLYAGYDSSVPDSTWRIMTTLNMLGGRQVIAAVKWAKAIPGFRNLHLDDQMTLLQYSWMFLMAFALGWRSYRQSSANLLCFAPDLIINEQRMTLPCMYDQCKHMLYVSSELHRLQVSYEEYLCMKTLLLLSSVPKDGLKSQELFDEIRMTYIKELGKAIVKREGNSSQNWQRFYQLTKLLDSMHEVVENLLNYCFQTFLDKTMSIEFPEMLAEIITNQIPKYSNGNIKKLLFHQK
# Experiment: qHTS assay for small molecule agonists of glucocorticoid receptor signaling (AID 588532);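 further: 100% = dexamethasone at 0.1 µM and 0% = DMSO only wells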
# Condition details: HeLa MMTV-bla, beta-lactamase ratio, agonist, 18 h; stronger effect = higher value; percent of dexamethasone control, DMSO zero
# Source text: NIH Chemical Genomics Center [NCGC] U.S. Environmental Protection Agency [EPA] National Institutes of Environmental Health Sciences [NIEHS] National Toxicology Program [NTP] […] NCGC Assay Protocol Summary Using a beta-lactamase reporter-gene under control of glucocorticoid response element (GRE), a cell-based assay [CellSensor MMTV-bla HeLa cell line assay developed by Invitrogen] was used to measure GR ligands signaling. […] Detection; Fluorescence; Envision plate reader
Results filed as inconclusive are left out.
Reported property: activation (%)
Report the figure in % without appending any unit label.

CC(/C=C/C=C(C)/C=C/C(=O)O)=C\C=C\C=C(C)\C=C\C=C(C)\C=C\C(=O)O	1.99

Kindly review the next compound as well.
Name the recorded activation of `CCN(CC)c1ccc(N)cc1` , assay system Glucocorticoid receptor (Homo sapiens) (UniProt P04150).
8.72

* * *

# Experiment: Cell Viability - LYMP2-003 (AID 965);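 further: cells exposed to compounds for 24 h before reading; nearly all actives have a fitted effect of over 50% in size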
# Condition details: LYMP2-003 lymphoblastoid cell viability; series mostly up to 92.2 µM
Records with an inconclusive call do not appear. Activity calls are given as the source filed them. The call rests on the fitted dose curve; in most records, active means well fitted cell-killing curve with a large enough effect; inconclusive means small, poorly fitted or top-dose-only effect, or effect the other way; inactive means flat fitted curve, though single readings scatter.
Pick one: active, inactive

c1c[nH]cn1	inactive

What was the test verdict on `Nc1cc(C(=O)O)c(O)c(S(=O)(=O)O)c1` ?
inactive

Entry `Cc1ccc(C(=O)O)cc1[N+](=O)[O-]` : call = ?
inactive

What classification did `CCN(CC)c1ccc(N)cc1` end up with in this test?
active

Identify the outcome logged in this assay for the compound shown: CCCCC(CC)COP(=O)(OCC(CC)CCCC)OCC(CC)CCCC (stereo not drawn)
inactive

Could you kindly confirm the outcome this assay logged for `C=C1CC[C@H](O)C/C1=C/C=C1\CCC[C@]2(C)[C@@H]([C@H](C)CCCC(C)C)CC[C@@H]12` ?
active

What call does the record list for `COc1ccc([N+](=O)[O-])cc1N` ?
inactive

Per the records of this test, what outcome belongs to `CC(C)(C)C(=O)C1C(=O)c2ccccc2C1=O` ?
inactive

# fetch the recorded call for `c1cc2c3c(c1)ccc1cccc(c13)C2` here
inactive

Assay outcome for CC(=O)OC(C(=O)c1ccccc1)c1ccccc1 (stereo not drawn) : what was it?
inactive

Query: recorded result category for `Cc1c(N)cccc1Cl` in this test
inactive

Record request — test call for `Nc1cc([N+](=O)[O-])ccc1O`
inactive

State the result this test recorded for C=CC(C)(O)CCCC(C)CCCC(C)CCCC(C)C (stereo not drawn) .
inactive

Lab log entry: `CCCCNCC` — outcome as called in the assay?
inactive

Which outcome was assigned to `Nc1ccc2c(c1)C(=O)c1ccccc1C2=O` in this test?
inactive
